# ASSAY_TEXT: Urinary excretion after intravenous C3G
# Type: in vivo, Wistar rats
# COND: 0.25 min after i.v. 668 nmol C3G
# Method: Twenty-two male Wistar rats (Rattus Norvegicus, Harlan Italy S.r.l.), of same age (15 weeks), 293–390 g of body weight, were used. The rats were randomly divided into 5 groups, according to the time that elapsed after intravenous administration of the test compound, and one control group. Each time point was represented by four biological replicates. […] During anaesthesia (10 min in all cases), the heart and ventilation rate were monitored. […]
PROPERTY: Urine concentration (pmol/g)

- OC[C@H]1O[C@@H](Oc2cc3c(O)cc(O)cc3[o+]c2-c2ccc(O)cc2)[C@H](O)[C@@H](O)[C@@H]1O [PG3G, Pelargonidin-3-O-β-glucoside]: 1.57
- COc1cc(-c2[o+]c3cc(O)cc(O)c3cc2O[C@@H]2O[C@H](CO)[C@@H](O)[C@H](O)[C@H]2O)cc(OC)c1O [M3G, Malvidin-3-O-β-glucoside]: 28.35

(I) OC[C@H]1O[C@@H](Oc2cc3c(O)cc(O)cc3[o+]c2-c2cc(O)c(O)c(O)c2)[C@H](O)[C@@H](O)[C@@H]1O [D3G, Delphinidin-3-O-β-glucoside]
(II) COc1cc(-c2[o+]c3cc(O)cc(O)c3cc2O[C@@H]2O[C@H](CO)[C@@H](O)[C@H](O)[C@H]2O)cc(O)c1O [PT3G, Petunidin-3-O-β-glucoside]
(III) COc1cc(-c2[o+]c3cc(O)cc(O)c3cc2O[C@@H]2O[C@H](CO)[C@@H](O)[C@H](O)[C@H]2O)ccc1O [PN3G, Peonidin-3-O-β-glucoside]
Order the 3 compounds from highest to lowest Urine concentration. Please respond by ranking the labels in the order requested.
I, III, II
(I: 20 pmol/g, III: 10 pmol/g, II: 4.58 pmol/g)
